Hello, the source for this data is patent US20190389957A1, in case you need it.

Target: T1, IL-11Rα as used in the Biacore kinetics of Example 14 (UniProt Q14626 23-363, limits assumed)
T1 sequence (looked up): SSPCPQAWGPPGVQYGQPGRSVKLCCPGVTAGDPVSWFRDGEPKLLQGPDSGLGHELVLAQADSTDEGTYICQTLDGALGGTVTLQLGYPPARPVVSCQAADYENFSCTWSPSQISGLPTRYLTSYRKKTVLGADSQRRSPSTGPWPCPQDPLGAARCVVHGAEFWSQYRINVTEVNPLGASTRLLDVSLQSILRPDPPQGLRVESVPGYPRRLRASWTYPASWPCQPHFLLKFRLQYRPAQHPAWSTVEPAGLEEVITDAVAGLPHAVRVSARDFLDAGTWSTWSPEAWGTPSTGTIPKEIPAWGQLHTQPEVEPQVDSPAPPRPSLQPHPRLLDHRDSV
Test: SPR (Biacore T200), multi-cycle kinetics, 25 C, HBS-P+ pH 7.4 with 0.1% BSA
Attribute measured: relative KD (KD divided by KD of 9A7)

Task: Tell me the measured relative KD (KD divided by KD of 9A7) of Humanised BSO-9A7 variant VH4/VL3 (antibody, V domains shown, Variable domains only) VH: QVQLVQSGAEVKKPGASVKVSCKASGYTFTNYWMHWLRQRPGQGLEWIGNIGPSDSKTHYNQKFKDRVTMTVDKSTSTAYMELSSLRSEDTAVYYCARGDYVLFTYWGQGTLVTVSS VL: DIVLTQSPATLSLSPGERATLSCRASQSISNNLHWYQQKPGQAPRLLIKYASQSISGIPARFSGSGSGTDFTLTISSLEPEDFAVYFCQQSYSWPLTFGQGTKLEIK , please.
Output: 1.3 ratio to 9A7

Task: Another: Humanised BSO-9A7 variant VH3/VL3 (antibody, V domains shown, Variable domains only) VH: QVQLVQSGAEVKKPGASVKVSCKASGYTFTNYWMHWLRQRPGQGLEWIGNIGPSDSKTHYNQKFKDRATLTVDKSTSTAYMELSSLRSEDTAVYYCARGDYVLFTYWGQGTLVTVSS VL: DIVLTQSPATLSLSPGERATLSCRASQSISNNLHWYQQKPGQAPRLLIKYASQSISGIPARFSGSGSGTDFTLTISSLEPEDFAVYFCQQSYSWPLTFGQGTKLEIK
Output: 0.84 ratio to 9A7

Task: Another: Anti-IL-11Rα antibody clone BSO-9A7 (antibody, V domains shown, also called RA7; 9A7 VH/VL) VH: QVQLQQPGAELVRPGSSVKLSCKASGYTFTNYWMHWLKQRPVQGLEWIGNIGPSDSKTHYNQKFKDKATLTVDKSSSTAYMQLNSLTSEDSAVYYCARGDYVLFTYWGQGTLVTVSA VL: DIVLTQSPATLSMTPGDSVSLSCRASQSISNNLHWYQQKSHESPRLLIKYASQSISGIPSRFSGSGSGTDFTLSFNSVETEDFGVYFCQQSYSWPLTFGAGTKLELK
Output: 1 ratio to 9A7
